Recorded EC50 for the following compounds
Molecular target: UniProt:P31424
Sequence (P31424 whole entry): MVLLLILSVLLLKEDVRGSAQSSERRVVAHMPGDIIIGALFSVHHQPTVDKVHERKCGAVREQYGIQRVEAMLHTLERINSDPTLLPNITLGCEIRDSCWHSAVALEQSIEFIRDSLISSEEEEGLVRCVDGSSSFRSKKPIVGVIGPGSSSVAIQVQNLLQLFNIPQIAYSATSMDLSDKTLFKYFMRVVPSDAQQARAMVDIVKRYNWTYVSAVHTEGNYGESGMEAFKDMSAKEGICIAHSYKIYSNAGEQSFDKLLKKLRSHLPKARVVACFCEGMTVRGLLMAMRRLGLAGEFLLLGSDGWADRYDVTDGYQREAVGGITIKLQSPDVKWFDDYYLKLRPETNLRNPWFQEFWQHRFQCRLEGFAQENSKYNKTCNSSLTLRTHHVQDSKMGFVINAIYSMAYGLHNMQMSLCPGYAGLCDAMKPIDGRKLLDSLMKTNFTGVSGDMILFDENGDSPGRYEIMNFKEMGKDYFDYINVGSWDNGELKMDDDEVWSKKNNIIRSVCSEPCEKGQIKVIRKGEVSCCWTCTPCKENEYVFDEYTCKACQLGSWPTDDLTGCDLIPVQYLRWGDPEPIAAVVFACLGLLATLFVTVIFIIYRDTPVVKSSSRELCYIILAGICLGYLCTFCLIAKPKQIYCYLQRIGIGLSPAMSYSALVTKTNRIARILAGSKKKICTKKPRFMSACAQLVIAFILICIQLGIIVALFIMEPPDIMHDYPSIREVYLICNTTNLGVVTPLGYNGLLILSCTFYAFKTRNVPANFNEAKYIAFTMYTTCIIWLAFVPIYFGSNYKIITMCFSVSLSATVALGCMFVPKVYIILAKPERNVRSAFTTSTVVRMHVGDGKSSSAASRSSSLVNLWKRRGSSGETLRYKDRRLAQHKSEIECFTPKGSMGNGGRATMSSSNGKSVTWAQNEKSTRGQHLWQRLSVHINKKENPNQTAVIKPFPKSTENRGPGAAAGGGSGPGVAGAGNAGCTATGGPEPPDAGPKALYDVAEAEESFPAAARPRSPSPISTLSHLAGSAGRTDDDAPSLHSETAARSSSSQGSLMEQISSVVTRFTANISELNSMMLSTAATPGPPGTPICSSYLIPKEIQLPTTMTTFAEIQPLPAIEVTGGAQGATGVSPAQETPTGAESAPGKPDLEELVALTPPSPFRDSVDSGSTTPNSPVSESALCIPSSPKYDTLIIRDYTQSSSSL
Test: Positive allosteric modulation of rat mGluR5 expressed in HEK293 cells

compound-string | measured-target | EC50 [nM]
CSc1nnc2c(n1)O[C@@H](c1cn(C)c3ccccc13)N(C(C)=O)c1ccccc1-2 | UniProt:P31424 | 1820
CCCCSc1nnc2c(n1)O[C@@H](c1ccsc1)N(C(C)=O)c1ccccc1-2 | UniProt:P31424 | 479
CCCCOc1ccccc1[C@@H]1Oc2nc(SC)nnc2-c2ccccc2N1C(=O)CC | UniProt:P31424 | 3720
CSc1nnc2c(n1)O[C@@H](c1c(C)[nH]c3ccccc13)N(C(C)=O)c1ccccc1-2 | UniProt:P31424 | 4070
CCC(=O)N1c2ccccc2-c2nnc(SC)nc2O[C@H]1c1ccc(OC)c(Br)c1 | UniProt:P31424 | 1100
CCSc1nnc2c(n1)O[C@@H](c1ccco1)N(C(=O)CC)c1ccccc1-2 | UniProt:P31424 | 813
CCCC(=O)N1c2ccccc2-c2nnc(SC)nc2O[C@H]1c1ccc(C(=O)OC)cc1 | UniProt:P31424 | 2240
CCSc1nnc2c(n1)O[C@@H](c1cc(Br)ccc1OC)N(C(C)=O)c1ccccc1-2 | UniProt:P31424 | 120
CCSc1nnc2c(n1)O[C@@H](c1ccc(OC)c(Br)c1)N(C(C)=O)c1ccccc1-2 | UniProt:P31424 | 955
CCOc1cc([C@@H]2Oc3nc(SCC)nnc3-c3ccccc3N2C(C)=O)ccc1OC(C)=O | UniProt:P31424 | 1950
CCSc1nnc2c(n1)O[C@@H](c1ccc(OCc3ccccc3)cc1)N(C(C)=O)c1ccccc1-2 | UniProt:P31424 | 6030
CSc1nnc2c(n1)O[C@@H](c1ccc(Cl)cc1)N(C(C)=O)c1ccccc1-2 | UniProt:P31424 | 2090
CSc1nnc2c(n1)O[C@@H](c1cccc(OCc3ccccc3)c1)N(C(C)=O)c1ccccc1-2 | UniProt:P31424 | 3310
CCCSc1nnc2c(n1)O[C@@H](c1ccccc1OC)N(C(C)=O)c1ccccc1-2 | UniProt:P31424 | 158
CCOc1ccc(Br)cc1[C@@H]1Oc2nc(SC)nnc2-c2ccccc2N1C(=O)CC | UniProt:P31424 | 398
C=CCOc1ccc([C@@H]2Oc3nc(SC)nnc3-c3ccccc3N2C(C)=O)cc1 | UniProt:P31424 | 2570
CCC(=O)N1c2ccccc2-c2nnc(SC)nc2O[C@H]1c1ccccc1F | UniProt:P31424 | 1780
CCC(=O)N1c2ccccc2-c2nnc(SC)nc2O[C@H]1c1cc(OC)ccc1OC | UniProt:P31424 | 191
CCOc1ccccc1[C@@H]1Oc2nc(SC)nnc2-c2ccccc2N1C(C)=O | UniProt:P31424 | 1230
CCCC(=O)N1c2ccccc2-c2nnc(SC)nc2O[C@H]1c1cccc(OC)c1 | UniProt:P31424 | 1020
CCSc1nnc2c(n1)O[C@H](c1cccnc1)N(C(C)=O)c1ccccc1-2 | UniProt:P31424 | 1820
C=CCSc1nnc2c(n1)O[C@@H](c1ccc(OC)c(OC)c1OC)N(C(C)=O)c1ccccc1-2 | UniProt:P31424 | 7760
CCSc1nnc2c(n1)O[C@H](c1ccc(OC(C)=O)c(OC)c1)N(C(C)=O)c1ccccc1-2 | UniProt:P31424 | 1000
C=CCSc1nnc2c(n1)O[C@@H](c1cccs1)N(C(=O)CC)c1ccccc1-2 | UniProt:P31424 | 57.5
CCSc1nnc2c(n1)O[C@@H](c1ccccn1)N(C(=O)CC)c1ccccc1-2 | UniProt:P31424 | 4370
CCSc1nnc2c(n1)O[C@@H](c1cccs1)N(C(=O)CC)c1ccccc1-2 | UniProt:P31424 | 309

Where do these numbers come from? They come from ChEMBL document CHEMBL1255530.
